B1: Calcium-binding protein 2, residues 155 to 219; numbered along this chain, Q9NPB3 (parent)
chain: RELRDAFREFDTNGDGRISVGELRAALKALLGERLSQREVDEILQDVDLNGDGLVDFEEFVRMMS

# Variants of: B1
# test.details: abundance fitness (aPCA) (normalised: wild type 0, dead -1); higher = more abundant; growth selection in yeast, the domain comes from the species named
# condition.notes: Homo sapiens
Please go through the items and note down their abundance fitness.

Request: Given the variant E22C , what is its reported abundance fitness?
Result: -0.469

Request: // lookup abundance fitness for L23E
Result: -0.663

Request: What measured abundance fitness goes with V55G ?
Result: -0.829

Request: Recorded abundance fitness for E59G , please?
Result: -0.171

Request: Reported abundance fitness, variant D48S : ____
Result: 0.109

Request: What value of abundance fitness has been reported for the following variant? R38S
Result: 0.001

Request: GET /values?readout=abundance fitness&item= G21K
Result: -0.193

Request: For the variant shown here, L27G , give the reported abundance fitness.
Result: 0.165

Request: Need abundance fitness of I43R , thanks.
Result: 0.03
